- assay_notes: Antimicrobial activity against Campylobacter fetus subsp. fetus CA75 harboring pCA75 carrying ant(6)-Ib resistant gene of 1516477 in presence of 5% lacked horse blood
- Assay type: functional

structure: CN[C@@H]1[C@H](O[C@H]2[C@H](O[C@H]3[C@H](O)[C@@H](O)[C@H](N=C(N)N)[C@@H](O)[C@@H]3N=C(N)N)O[C@@H](C)[C@]2(O)C=O)O[C@@H](CO)[C@H](O)[C@H]1O
MIC: 64 µg/mL
--
structure: CN(C)[C@@H]1C(O)=C(C(N)=O)C(=O)[C@@]2(O)C(O)=C3C(=O)c4c(O)cccc4[C@@](C)(O)[C@H]3C[C@@H]12
MIC: 1 µg/mL
--
structure: CN(C)c1ccc(O)c2c1C[C@H]1C[C@H]3[C@H](N(C)C)C(O)=C(C(N)=O)C(=O)[C@@]3(O)C(O)=C1C2=O
MIC: 1 µg/mL
--
structure: C[C@H]1c2cccc(O)c2C(=O)C2=C(O)[C@]3(O)C(=O)C(C(N)=O)=C(O)[C@@H](N(C)C)[C@@H]3[C@@H](O)[C@@H]21.O
MIC: 0.5 µg/mL
